// provenance: patent US20170298096A1

Measured on: T1, His-tagged P3028 (human, also: His-tag, terminus and sequence not given here)
T1 construct: in solution at 0.5 ug/mL over the peptide cards; found with anti-His-tag antibody and rabbit anti-mouse peroxidase (rampo); also called PGE73; not shown: His-tag
T1 peptide: VFDEFKPLVEEPQNLIK
Test protocol: PEPSCAN chip ELISA, His-P3028 in solution;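 note: score is the raw OD at 405 nm from peroxidase colour with ABTS, imaged by CCD camera before and after staining, with wells showing air bubbles set to zero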
No end group written: not given here.
Readout kind: RAMPO Score (rampo score)
Give bare numbers, in rampo score.

Some binders with known RAMPO Score results, for comparison:
| Binder | Measured result |
| --- | --- |
| KKLTTFFVKLSLFTER [SEQ ID NO 413] | 405 |
| KKLETFFVKLSLFTER [SEQ ID NO 299] | 417 |
| KKLDTFFVKLSVFTER [SEQ ID NO 359] | 545 |

From here, focus on the item given below.
Give the measured RAMPO Score for KKLDTFVVKLSLFTER [SEQ ID NO 325] 527
